- System: Escherichia coli
- protocol.notes: Antimicrobial activity against Escherichia coli after 24 hrs by broth dilution assay
- Type: functional
measured.property: MIC (µM)

CCOC(=O)CONC(N)=O    160
CNC1=NC(=O)NOC1    320
O=C1CONC(=O)N1    10
O=C1N=C(NC(c2ccccc2)c2ccccc2)CON1    320
NC1=NC(=O)NOC1    10
CN(C)C1=NC(=O)NOC1    160
O=C1N=C(NCc2ccccc2)CON1    320
O=C1CON(C(=O)OCc2ccccc2)C(=O)N1    20

* * *

- System: Trichophyton mentagrophytes
- protocol.notes: Antimicrobial activity against Trichophyton mentagrophytes after 48 hrs by broth dilution assay
- Assay type: functional
We begin with a simple list: items and their reported MIC.
measured.property: MIC

O=C1CON(C(=O)OCc2ccccc2)C(=O)N1    > 400 µM
CNC1=NC(=O)NOC1    320 µM
O=C1NOCC(=S)N1    320 µM
O=C1NC(=S)CON1Cc1ccccc1    160 µM
NC1=NC(=O)NOC1    > 400 µM
CN(C)C1=NC(=O)NOC1    > 400 µM
NNC1=NC(=O)NOC1    > 400 µM
O=C1N=C(NC(c2ccccc2)c2ccccc2)CON1    > 400 µM
CCOC(=O)CONC(N)=O    > 400 µM
O=C1N=C(NO)CON1    > 400 µM
CN1OCC(=S)NC1=O    160 µM
O=C1N=C(NCc2ccccc2)CON1    > 400 µM
O=C1CONC(=O)N1    > 400 µM

* * *

- Test system: Escherichia coli
- protocol.notes: Antimicrobial activity against Escherichia coli paper disc treated with 24 hrs urine sample from 100 mg/kg, po compound treated ICR mouse measured after 18 to 24 hrs by disc diffusion assay
- Format: functional, organism-based
- Parameters: dose 100 mg/kg
The source made the active and inactive calls. The calls are words filed in the database; no cut-off is given here.
Outcome codes: active, inactive

O=C1CON(C(=O)OCc2ccccc2)C(=O)N1    inactive
O=C1CONC(=O)N1    inactive
NC1=NC(=O)NOC1    active
O=C1NOCC(=S)N1    inactive

* * *

- Test system: Human rhinovirus A13
- protocol.notes: Antiviral activity against Rhinovirus A13
- Assay type: functional
Calls of active or inactive are those of the source. The rule behind the calls is not given here.
measured.property: Activity

O=C1N=C(NC(c2ccccc2)c2ccccc2)CON1    inactive
CNC1=NC(=O)NOC1    inactive
CN(C)C1=NC(=O)NOC1    inactive
NNC1=NC(=O)NOC1    inactive
O=C1N=C(NO)CON1    inactive
O=C1N=C(NCc2ccccc2)CON1    inactive
O=C1CON(C(=O)OCc2ccccc2)C(=O)N1    inactive
NC1=NC(=O)NOC1    inactive
O=C1CONC(=O)N1    inactive
O=C1NOCC(=S)N1    inactive
CN1OCC(=S)NC1=O    inactive
O=C1NC(=S)CON1Cc1ccccc1    inactive

* * *

# key: entry, value: MIC
- Tested on: Escherichia coli
- protocol.notes: Antimicrobial activity against Escherichia coli after 24 hrs by broth dilution assay
- Assay type: functional
measured.property: MIC

CN1OCC(=S)NC1=O    > 400 µM
NNC1=NC(=O)NOC1    > 400 µM
O=C1NOCC(=S)N1    < 5 µM
O=C1NC(=S)CON1Cc1ccccc1    > 400 µM
O=C1N=C(NO)CON1    > 400 µM
